Cited source for all entries: the supplement of paper PMC9694430

- System: LOC_OS01G70970-cb002
- testSummary: thermal shift delta Tm vs DMSO control; higher = stronger stabilization (binding);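 note: purified Escherichia coli-expressed rice kinase domain construct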
- studyConditions: 12.5 µM; protein concentration 2 µM
Counter-ions that a name gives are not always drawn.
Response field class: enum, chosen by comparing thermal shift delta Tm against label 0: < 0.3 °C; label 1: ≥ 0.3 °C and < 0.7 °C; label 2: ≥ 0.7 °C

[[record]]
compound = "O=C(NCc1ccccc1)c1csc(Nc2ccncn2)n1 [Thiazovivin]"
labelvalue = "label 0"

[[record]]
compound = "Cn1c(=O)c(F)c(Nc2ccc(I)cc2F)c2c(=O)n(C[C@@H](O)CO)cnc21"
labelvalue = "label 0"


Task item: Which band does "O=C1NC(=O)/C(=C/c2ccc3c(c2)OC(F)(F)O3)S1" fall in?
Reply: label 1

Task item: Which band does CC#CC(=O)N1CC[C@@H](n2c(=O)n(-c3ccc(Oc4ccccc4)cc3)c3c(N)ncnc32)C1 [ONO-4059 (GS-4059) hydrochloride] fall in?
Reply: label 0

Task item: Which band does "CC1(C)OCCn2c1nc1c(N3CCOCC3)nc(-c3cnc(N)nc3)nc12" fall in?
Reply: label 2

Task item: Which band does "CC(C)S(=O)(=O)c1ccc2nccc(Nc3ccc4scnc4c3)c2c1" fall in?
Reply: label 1

Task item: Which band does C=C[C@@](C)(/C=C/c1ccc(O)cc1)CCC=C(C)C [Bakuchiol] fall in?
Reply: label 1

Task item: Which band does "CC(C)(O)CNc1ncc(-c2ccnc(Nc3ccnc(Cl)c3)n2)c(CC2CC2)n1" fall in?
Reply: label 1

Task item: Which band does c1nc2c(NC3CCCCC3)nc(Nc3ccc(N4CCOCC4)cc3)nc2[nH]1 [Reversine] fall in?
Reply: label 2

Task item: Which band does "C[C@H](NC(=O)c1c(N)nn2cccnc12)c1cc2cccc(C#Cc3cnn(C)c3)c2c(=O)n1-c1ccccc1" fall in?
Reply: label 1

* * *

Measured thermal shift delta Tm values are reported for all entries that follow.
- Test system: LOC_OS02G07810-cb001
- testSummary: thermal shift delta Tm vs DMSO control; higher = stronger stabilization (binding)
- studyConditions: 12.5 µM; protein concentration 2 µM
Give the value, in units of °C, as a plain number.

Entry "C=CC(=O)Nc1cccc(Sc2nc(Nc3ccc(N4CCN(C)CC4)cc3)ncc2Cl)c1" — recorded thermal shift delta Tm = 0.82

Entry COc1cc2ncnc(Nc3ccc(F)c(Cl)c3)c2cc1OCCCN1CCOCC1 [Gefitinib (ZD1839)] — recorded thermal shift delta Tm = 0.77

Entry "COc1ccc(Cl)cc1NC(=O)Nc1cc(C)nc2ccccc12" — recorded thermal shift delta Tm = 1.12

Entry "C=CC(=O)Nc1ccc2ncnc(Nc3cccc(Br)c3)c2c1" — recorded thermal shift delta Tm = 0.8

Entry COc1ccc(COc2cc3oc(=O)c4cc(C(C)O)ccc4c3cc2OC)cc1 (centres undefined) — recorded thermal shift delta Tm = 0.98

Entry "O=C(NCCO)c1cccc(-c2cc(Nc3ccc(OC(F)(F)F)cc3)ncn2)c1" — recorded thermal shift delta Tm = 0.33

* * *

- Tested on: LOC_OS04G41100-cb001
- Sequence (as listed by the source): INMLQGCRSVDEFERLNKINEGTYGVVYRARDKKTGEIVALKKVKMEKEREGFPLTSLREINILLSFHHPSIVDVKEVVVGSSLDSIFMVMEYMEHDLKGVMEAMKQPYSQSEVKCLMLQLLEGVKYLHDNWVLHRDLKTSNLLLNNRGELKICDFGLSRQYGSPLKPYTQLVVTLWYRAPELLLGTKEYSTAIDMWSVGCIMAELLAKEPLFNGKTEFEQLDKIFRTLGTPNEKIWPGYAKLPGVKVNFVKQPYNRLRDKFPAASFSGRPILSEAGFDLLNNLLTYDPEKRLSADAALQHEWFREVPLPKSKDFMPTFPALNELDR
- testSummary: thermal shift delta Tm vs DMSO control; higher = stronger stabilization (binding)
- studyConditions: 12.5 µM; protein concentration 2 µM
measurementName: thermal shift delta Tm (°C)
Give the value, in units of °C, as a plain number.

Some solved entries appear below for comparison.
[[record]]
compound = "COc1nccc(-c2c(-c3ccc(F)cc3)ncn2C2CCC(O)CC2)n1 (configuration not stated)"
endpointunit = "°C"
recordednumber = 0.51

[[record]]
compound = "C=C[C@@](C)(/C=C/c1ccc(O)cc1)CCC=C(C)C"
endpointunit = "°C"
recordednumber = 0.44

[[record]]
compound = "CC(C)(C)Cn1c(N)nc2ccc(-c3[nH]c(C(C)(C)C)nc3-c3ccc(F)cc3)nc21"
endpointunit = "°C"
recordednumber = 0.22

[[record]]
compound = "C[C@@H](Oc1cc(-c2cnn(C3CCNCC3)c2)cnc1N)c1c(Cl)ccc(F)c1Cl"
endpointunit = "°C"
recordednumber = 0.57

[[record]]
compound = "CN(c1ccccc1CNc1nc(Nc2ccc3c(c2)CC(=O)N3)ncc1C(F)(F)F)S(C)(=O)=O"
endpointunit = "°C"
recordednumber = 2.86

[[record]]
compound = "Cc1cn(-c2cc(NC(=O)c3ccc(C)c(Nc4nccc(-c5cccnc5)n4)c3)cc(C(F)(F)F)c2)cn1"
endpointunit = "°C"
recordednumber = 0.57


Entry "CN(C)CCOc1ccc(-c2nc(-c3ccncc3)c(-c3ccc4c(c3)CC/C4=N\O)[nH]2)cc1" — recorded thermal shift delta Tm = 0.3

* * *

- Test system: LOC_OS01G63280-cb003
- testSummary: thermal shift delta Tm vs DMSO control; higher = stronger stabilization (binding)
- studyConditions: 12.5 µM; protein concentration 2 µM
measurementName: thermal shift delta Tm (°C)
Give the value, in units of °C, as a plain number.

GET /values?item= "Cc1ccc2nc(NCCN)c3ncc(C)n3c2c1" &system= LOC_OS01G63280-cb003 returns thermal shift delta Tm: 0.27

GET /values?item= "COc1cccc(-c2cc(=O)c3ccccc3o2)c1N" &system= LOC_OS01G63280-cb003 returns thermal shift delta Tm: -0.2

GET /values?item= Cc1nc(NC(=O)N2CCC[C@H]2C(N)=O)sc1-c1ccnc(C(C)(C)C(F)(F)F)c1 [Alpelisib (BYL719)] &system= LOC_OS01G63280-cb003 returns thermal shift delta Tm: 0.27

GET /values?item= Cc1ccc(-n2nc(C(C)(C)C)cc2NC(=O)NCc2cc(F)ccc2Oc2ccc3c(cnn3CCO)c2)cc1 [Pexmetinib (ARRY-614)] &system= LOC_OS01G63280-cb003 returns thermal shift delta Tm: 6.58

GET /values?item= "Cn1c2ccccc2c2c3c(c4c5ccccc5n(CCC#N)c4c21)CNC3=O" &system= LOC_OS01G63280-cb003 returns thermal shift delta Tm: 1.14

* * *

- System: LOC_OS01G51400-cb002
- testSummary: thermal shift delta Tm vs DMSO control; higher = stronger stabilization (binding)
- studyConditions: 12.5 µM; protein concentration 2 µM
Record y whenever thermal shift delta Tm is at 0.2 °C or higher; record n when lower.

These recorded examples may help you get a feel for the data.
[[record]]
compound = "CC(=O)Nc1nc(C)c(-c2ccc(Cl)c(S(=O)(=O)NCCO)c2)s1"
labelvalue = "n"

[[record]]
compound = "Cc1cc(O)c2c(c1)C(=O)c1cccc(O)c1C2=O"
labelvalue = "n"

[[record]]
compound = "Cc1csc(-c2nnc(Nc3ccc(Oc4ncccc4-c4ccnc(N)n4)cc3)c3ccccc23)c1"
labelvalue = "y"

[[record]]
compound = "COc1cc2ncnc(Oc3cccc(NC(=O)Nc4cc(C(C)(C)C(F)(F)F)on4)c3)c2cc1OC"
labelvalue = "y"

[[record]]
compound = "CC(C)(C)c1ccc(S(=O)(=O)/C=C/C#N)cc1"
labelvalue = "n"

[[record]]
compound = "CCS(=O)(=O)c1cccc(-c2cc(C(=O)NC3CCN(C)CC3)c(C)c3[nH]c4ncc(C)cc4c23)c1"
labelvalue = "n"

[[record]]
compound = "CC1(C)OC(=O)C=C[C@]2(C)[C@H]3CC[C@@]4(C)[C@H](c5ccoc5)OC(=O)[C@H]5O[C@]54[C@]3(C)C(=O)C[C@@H]12"
labelvalue = "n"

[[record]]
compound = "Cc1nc(Nc2n[nH]c3c2CN(C(=O)N[C@H](CN(C)C)c2ccccc2)C3(C)C)c2sccc2n1"
labelvalue = "y"

[[record]]
compound = "Nc1nccc(Oc2ccc3c(C(=O)Nc4cccc(C(F)(F)F)c4)cccc3c2)n1"
labelvalue = "n"

[[record]]
compound = "O=C(c1ccc(Nc2nccc(-c3cc4ccccc4s3)n2)cc1)N1CCC(N2CCCC2)CC1"
labelvalue = "n"


Task item: Check if thermal shift delta Tm >= 0.2 °C (inclusive). Item: "COc1ccc(CNC(=O)Nc2ncc([N+](=O)[O-])s2)cc1"
Reply: n

Task item: Check if thermal shift delta Tm >= 0.2 °C (inclusive). Item: "CSc1cccc(Nc2ncc3cc(-c4c(Cl)cccc4Cl)c(=O)n(C)c3n2)c1"
Reply: n

Task item: Check if thermal shift delta Tm >= 0.2 °C (inclusive). Item: "CC(C)Nc1cc(-c2c[nH]c(C(=O)N[C@H](CO)c3cccc(Cl)c3)c2)c(Cl)cn1"
Reply: n

Task item: Check if thermal shift delta Tm >= 0.2 °C (inclusive). Item: Cc1ccc(Nc2nccc(N(C)c3ccc4c(C)n(C)nc4c3)n2)cc1S(N)(=O)=O [Pazopanib]
Reply: y

Task item: Check if thermal shift delta Tm >= 0.2 °C (inclusive). Item: "CNC(=O)c1ccc(Nc2ncc(C(F)(F)F)c(NCc3nccnc3N(C)S(C)(=O)=O)n2)cc1"
Reply: y

Task item: Check if thermal shift delta Tm >= 0.2 °C (inclusive). Item: "COc1ccc(C(=O)Nc2sc3c(c2C(N)=O)CCCC3)cc1OC"
Reply: y
